Values were extracted from PubChem BioAssay (NCI).

Tested on: NCI-H460 lung
Test: NCI-60 one-dose screen, 48 h
Details: 10 µM unless noted
The panel holds about 83,000 compounds, 20% with a hit somewhere; the sample as a whole holds those more often. Calls of active or inactive are those of the source. How the source made its calls: active means growth percent below 10; inactive means the rest.
// classify into T (active), F (inactive)

| Compound | Label |
| --- | --- |
| c1ccc(CSc2ncnc3nc[nH]c23)nc1 | F |
| Cc1nn(-c2ccccc2)c2nc(C)n(-c3ccc(Br)cc3)c(=O)c12 | T |
| CC/C(=C(\c1ccccc1)c1ccc(OCCNC)cc1)c1ccccc1 | T |

IN: Returns: the outcome recorded for CCC(c1ccccc1)C(CC)c1ccc(O)c(O)c1 (stereo not given) in this assay.
OUT: F

IN: Returns: the outcome recorded for `Cc1cc2cc3cc(C)c(N(C)C)cc3nc2cc1N(C)C` in this assay.
OUT: T

IN: Returns: the outcome recorded for Cc1nc2sc(C(=O)Nc3cccc4c3OCCO4)c(N)c2cc1C(C)O (stereo not given) in this assay.
OUT: F

IN: Returns: the outcome recorded for `CCCCCCCCCCCCCCCCNCCC[C@@H](C)[C@H]1CC[C@H]2[C@@H]3[C@H](OCCCN)C[C@@H]4C[C@H](OCCCN)CC[C@]4(C)[C@H]3C[C@H](OCCCN)[C@]12C` in this assay.
OUT: T

IN: Returns: the outcome recorded for CC(C)CC(CC1=CCC2CC1C2(C)C)C1=C(O)C(C)(C)C(=O)C(C)(C)C1=O (stereo not given) in this assay.
OUT: T

IN: Returns: the outcome recorded for CC1CN(C(C)C)C(=S)N(c2ccccc2)C1=O (stereo not given) in this assay.
OUT: F

IN: Returns: the outcome recorded for `O=c1c2cccc3c(NC4CCCCC4)ccc(c32)c2nc3ccccc3n12` in this assay.
OUT: F
